The measured values listed here are drawn from patent US20210188980A1.

Measured log10 EC50 values are reported for all entries that follow.
target: T1, human PD-1 expressed on cells (human, UniProt Q15116 25-288); assay: FACS, CHO-K1/huPD-1 cells
T1 construct: whole, on cells; also called CHO-K1/huPD-1; CHO-K1-hPD-1 cells
T1 sequence (Q15116 25-288): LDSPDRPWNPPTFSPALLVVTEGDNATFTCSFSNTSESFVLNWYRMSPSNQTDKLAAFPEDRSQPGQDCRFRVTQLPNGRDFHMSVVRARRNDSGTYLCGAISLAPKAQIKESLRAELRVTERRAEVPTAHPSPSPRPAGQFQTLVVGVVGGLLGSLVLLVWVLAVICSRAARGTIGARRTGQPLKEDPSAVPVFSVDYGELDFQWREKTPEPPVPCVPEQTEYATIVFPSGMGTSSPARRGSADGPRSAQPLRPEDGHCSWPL
quantityMeasured: log10 EC50 (log10 of the value in nM)

binder: mAb703 (antibody, V domains shown, murine hybridoma anti-PD-1 mAb) VH: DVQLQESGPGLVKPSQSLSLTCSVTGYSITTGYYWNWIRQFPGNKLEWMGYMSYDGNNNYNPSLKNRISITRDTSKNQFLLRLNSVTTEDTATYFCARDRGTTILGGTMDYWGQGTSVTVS VL: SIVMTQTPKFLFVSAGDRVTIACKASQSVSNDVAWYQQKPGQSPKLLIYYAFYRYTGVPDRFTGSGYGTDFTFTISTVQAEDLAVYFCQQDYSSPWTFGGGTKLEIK
log10 EC50: -0.30
--
binder: mAb709 (antibody, V domains shown, murine hybridoma anti-PD-1 mAb) VH: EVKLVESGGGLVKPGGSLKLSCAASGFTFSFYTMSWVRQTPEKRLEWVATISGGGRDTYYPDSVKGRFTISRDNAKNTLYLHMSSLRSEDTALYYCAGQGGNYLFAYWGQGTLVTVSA VL: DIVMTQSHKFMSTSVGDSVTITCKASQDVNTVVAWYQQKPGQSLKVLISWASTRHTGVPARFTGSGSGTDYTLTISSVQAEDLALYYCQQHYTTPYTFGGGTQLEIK
log10 EC50: -0.70
--
binder: mAb719 (antibody, V domains shown, murine hybridoma anti-PD-1 mAb) VH: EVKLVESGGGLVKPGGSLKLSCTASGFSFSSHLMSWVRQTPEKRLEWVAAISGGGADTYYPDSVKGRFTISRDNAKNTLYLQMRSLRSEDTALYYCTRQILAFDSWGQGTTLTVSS VL: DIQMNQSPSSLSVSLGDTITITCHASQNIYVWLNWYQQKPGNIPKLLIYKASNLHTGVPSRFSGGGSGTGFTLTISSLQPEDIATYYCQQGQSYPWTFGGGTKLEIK
log10 EC50: 0.23
--
binder: mAb713 (antibody, V domains shown, murine hybridoma anti-PD-1 mAb) VH: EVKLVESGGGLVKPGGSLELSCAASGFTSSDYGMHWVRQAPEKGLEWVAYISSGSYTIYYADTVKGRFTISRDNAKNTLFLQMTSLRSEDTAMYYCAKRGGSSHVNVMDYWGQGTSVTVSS VL: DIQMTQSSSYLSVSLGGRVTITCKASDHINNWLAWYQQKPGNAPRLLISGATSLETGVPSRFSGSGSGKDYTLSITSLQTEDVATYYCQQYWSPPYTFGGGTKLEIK
log10 EC50: 0.04
--
binder: mAb701 (antibody, V domains shown, murine hybridoma anti-PD-1 mAb) VH: EVLLVESGGGLVKPGGSLKLSCAASGFTFSSYMMSWIRQTPERRLEWVASMSGGGRDTYYPDSVKGRFTISRDNAKNTLYLQMSSLRSEDTALYYCARRGTYAMDYWGQGTSVTVSS VL: DIQMTQSPASQSASLGESVTITCLASQTIGTWLTWYQQKPGKSPQLLIYAATSLADGVPSRFSGSGSGTKFSFKISSLQAEDFVSYYCQQLYSTPWTFGGGTKLEIK
log10 EC50: 0.48
--
binder: mAb718 (antibody, V domains shown, murine hybridoma anti-PD-1 mAb) VH: QVQLQQSGAELVRPGASVTLSCKASGYTFTDYEMHWAKQTPVHGLEWIGVIEPESGGTVYNQKFKGKAKLTADKSSRTAYMELRSLTSEDSAVYYCTREGFNSDHYFDYWGQGTTLTVSS VL: DVLMTQTPLSLPVSLGDQASISCRSSQNIVHSNGNTYLEWYLQKPGQSPKLLIYKVFNRFSGVPDRFSGSGSGTDFTLKISRVEAEDLGVYYCFQGSHVPYTFGGGTKLEIK
log10 EC50: 0.51
--
binder: mAb715 (antibody, V domains shown, murine hybridoma anti-PD-1 mAb) VH: EVMLVESGGGLLKPGGSLKLSCAASGFTFSSYAMSWVRQTPEKRLEWVATISGGGRDTYYPDSVKGRFTISRDNAKNTLYLQMTSLRSEDTAFYYCAGQGGTYLFASWGQGTLVTVSA VL: DIVMTQSHKFMSTSVGDSVTITCKASQDVNTAVAWYQQKPGQPPKVLIYWASTRHTGVPDRFTGSGSGTDYTLTISSVQAEDLALYYCQQHYTTPYTFGGGTKLEIK
log10 EC50: 0.04
--
binder: mAb714 (antibody, V domains shown, murine hybridoma anti-PD-1 mAb) VH: EVHLQQSGPELVKPGASVKIFCKASGYTFTDNNVEWVKQSHGKSLEWIGDINPNNGDTLYSQYFKDKATLTVDKSSTTAYMELRSLTSEDTGLYYCARGKSDQFDYWGQGTTLTVSS VL: DIQMTQSPASQSASLGESVTITCLASQTIGTWLAWYQQKPGKSPQLLIYAATSLADGVPSRFSGSGSGTKFSFKISSLQGEDFVSYYCQQLYSSPWTFGGGTKLEIK
log10 EC50: 0.20
